Assay: qHTS for differential inhibitors of proliferation of Plasmodium falciparum line 7G8 (AID 1815);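 also: parasite growth measured after three days of incubation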
Settings: Plasmodium falciparum 7G8 proliferation inhibition; series mostly up to 28.7 µM
Records with an inconclusive call do not appear. The source made the active and inactive calls. Calls follow the shape of the dose curve; as a rule, active = well fitted curve in the direction sought with a large enough effect; inconclusive = small, poorly fitted or top-dose-only effect, or another doubt; inactive = no such curve, though single readings can be large or run the other way.
Labels: active, inactive

molecule	classLabel
O=S(=O)(O)C1CCNCC1	inactive
Cc1c(C)c2c(c(C)c1O)CCC(C)(CN1CCN(c3cc(N4CCCC4)nc(N4CCCC4)n3)CC1)O2 (stereo not given)	active
CC(=O)O[C@]1(C(C)=O)CC[C@H]2C3C=C(Cl)C4=CC(=O)[C@@H]5C[C@H]5[C@]4(C)C3CC[C@@]21C (stereo not given in full)	active
CC(C)C[C@H](N)CSSC[C@@H](N)CC(C)C	active
C#C[C@]1(O)CC[C@H]2C3CCC4=Cc5oncc5CC4(C)C3CCC21C (stereo not given in full)	active

###

Assay: qHTS assay for small molecule activators of the p53 signaling pathway (AID 651743); also: % of control where 0% means no effect
Conditions: HCT-116 p53RE-bla, beta-lactamase FRET ratio, 16 h; stronger effect = higher value
Inconclusive results are not listed. Calls of active or inactive are those of the source. The call rests on the fitted dose curve; in most records, active means well fitted activation curve with a large enough effect in the signal ratio (not every such curve was filed as active); inconclusive means small, poorly fitted or top-dose-only effect, or a change in a side signal; inactive means flat fitted curve, though single readings scatter; the % refers to the signal ratio.

molecule	activation
O=C(O)c1ccccc1	7.69% (inactive)
O=C(Nc1ccccc1)c1ccccc1O	20.6% (inactive)
O=C1CCc2ccccc2O1	-0.942% (inactive)
O=C(/C=C/c1ccc(O)c(O)c1)O[C@@H](C(=O)O)[C@@H](OC(=O)/C=C/c1ccc(O)c(O)c1)C(=O)O	0.853% (inactive)
CN(C)CCCCCCN(C)C	-2.74% (inactive)
C=Cc1ccccc1Cl	-0.152% (inactive)
COc1c2ccoc2cc2oc(=O)ccc12	6.05% (inactive)
c1ccc2scnc2c1	0.66% (inactive)
c1ccccc1	0.891% (inactive) [middle of 4 runs]
C=CC(C)(CCC=C(C)C)OC(C)=O (configuration not stated)	-1.51% (inactive)
O[C@@H]([C@H](O)[C@@H](O)CBr)[C@@H](O)CBr	4.39% (inactive)
O=C(O)CCCCCCCCC(=O)O	0.877% (inactive)

###

Test: Dual reporter qHTS for antagonist of Pregnane X Receptor (hPXR) against the NCATS DSHEA and TCM libraries: Fluorescence Readout (AID 1920061); also: 0% is about no effect
Conditions: PXR dual reporter cells, antagonist mode; series mostly up to 40 µM
Text: Assay Development and Screening Technology Laboratory (ADST) National Center for Advancing Translational Sciences (NCATS), Rockville, MD National Institute of Health (NIH), Bethesda, Maryland Dietary Supplements and Natural Products have minor oversight of their safety and efficacy. […] Overall, we highlight four significant bioactivity profiles (measured by p-values) as examples of this prediction. […] 8; Read; Fluorescence; ViewLux plate reader. […] 11; Read; Luminescence; ViewLux plate reader. […]
Records with an inconclusive call do not appear. Calls of active or inactive are those of the source. The call rests on the fitted dose curve; in most records, active means well fitted curve in the direction sought with a large enough effect; inconclusive means small, poorly fitted or top-dose-only effect, or another doubt; inactive means no such curve, though single readings can be large or run the other way.

compound	outcome
CCCCCCCC/C=C\CCCCCCCCCCCC(=O)O	inactive
C[C@@H]1OC(O[C@H]2[C@H](O)[C@@H](O)[C@H](OC[C@H]3O[C@@H](OC(=O)[C@]45CCC(C)(C)C[C@@H]4C4=CCC6[C@@]7(C)CC[C@H](OC8OC[C@H](O)[C@H](O)[C@H]8OC8O[C@@H](C)[C@H](O)[C@@H](O)[C@H]8O)[C@@](C)(CO)C7CC[C@@]6(C)[C@]4(C)CC5)[C@H](O)[C@@H](O)[C@@H]3O)O[C@@H]2CO)[C@H](O)[C@H](O)[C@H]1O (some centres undefined)	inactive
CC(=O)O[C@@H]1CC[C@@]2(C)[C@@H](CC[C@]3(C)[C@@H]2C(=O)C=C2[C@@H]4[C@@H](C)[C@H](C)CC[C@]4(C)CC[C@]23C)[C@@]1(C)C(=O)O	inactive
CC(C)=CCC[C@](C)(O[C@@H]1O[C@H](CO)[C@@H](O)[C@H](O)[C@H]1O)[C@H]1CC[C@]2(C)[C@@H]1[C@H](O)C[C@@H]1[C@@]3(C)CC[C@H](O)C(C)(C)[C@@H]3[C@@H](O[C@@H]3O[C@H](CO)[C@@H](O)[C@H](O)[C@H]3O[C@@H]3O[C@@H](C)[C@H](O)[C@@H](O)[C@H]3O)C[C@]12C	inactive
O=C(/C=C/c1ccc(O)c(O)c1)O[C@@H]1CC(O)(C(=O)O)C[C@@H](OC(=O)/C=C/c2ccc(O)c(O)c2)C1O (some centres undefined)	inactive
O=C(O[C@@H]1Cc2c(O)cc(O)cc2O[C@@H]1c1ccc(O)c(O)c1)c1cc(O)c(O)c(O)c1	inactive
C=C1C[C@@]23CC[C@H]4[C@](C)(CCC[C@]4(C)C(=O)O[C@@H]4O[C@H](CO)[C@@H](O)[C@H](O)[C@H]4O)[C@@H]2CC[C@]1(O[C@H]1O[C@@H](CO)[C@H](O)[C@@H](O)[C@@H]1O)C3	inactive
COc1cc(/C=C/c2ccccc2)oc(=O)c1	inactive
Cc1ccc(C(C)C)cc1	inactive
C=C1C[C@]23CC[C@H]4[C@@](C)(CCC[C@@]4(C)C(=O)O)[C@@H]2CC[C@@]1(O[C@@H]1O[C@H](CO)[C@@H](O)[C@H](O)[C@H]1O[C@@H]1O[C@H](CO)[C@@H](O)[C@H](O)[C@H]1O)C3	inactive
CCCCCCCCCCCC(=O)O	inactive
O=C(O)CC(O)(C(=O)O)C(O)C(=O)O (centres undefined)	inactive
CCCCCCC/C=C/C(=O)CCc1ccc(O)c(OC)c1	inactive
COc1ccc(/C=C/c2cc(OC)cc(=O)o2)cc1	inactive

###

Listing of recorded activity by entry.
Molecular target: Catechol O-methyltransferase (Homo sapiens) (UniProt P21964)
Sequence (P21964 whole entry, looked up): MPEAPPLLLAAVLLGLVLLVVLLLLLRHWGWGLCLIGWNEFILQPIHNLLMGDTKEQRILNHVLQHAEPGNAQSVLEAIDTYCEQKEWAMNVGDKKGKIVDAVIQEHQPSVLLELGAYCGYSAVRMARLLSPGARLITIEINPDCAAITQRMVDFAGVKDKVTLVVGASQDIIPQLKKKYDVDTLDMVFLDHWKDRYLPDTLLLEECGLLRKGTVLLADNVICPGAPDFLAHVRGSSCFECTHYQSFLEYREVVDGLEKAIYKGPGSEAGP
Test: Confirmatory Screen for Target Class Profiling of Small Molecule Inhibitors of Methyltransferases (AID 1745852)
Conditions: MTase-Glo luminescence, SAH detection, recombinant enzyme; measured here: COMT max response; stronger effect = lower value
assayEndpoint: activity (%)

compound	valueUnits	reported
O=C(CCc1nnc2n(CCc3ccccc3)c(=O)c3ccccc3n12)N1CCC(N2CCCCC2)CC1	%	4.18
CCN(CC)CCCNC(=O)CCCc1nnc2n3nc(-c4ccccc4)nc3c3ccccc3n12	%	-3.39
Cc1ccc(CN2C(=O)c3ccc(-c4ccco4)n3CC2(C)C(=O)NCc2ccc(Cl)cc2)cc1 (stereo not given)	%	0
CC1CC(C)CN(S(=O)(=O)c2ccc3c(c2)oc(=O)n3CC(=O)Nc2ccc(Cl)cc2)C1 (stereo not given)	%	-4.03
O=C(CCc1nnc2n(CCc3ccccc3)c(=O)c3ccccc3n12)N1CCN(c2ccccc2)CC1	%	0
Cc1ccc(Cn2c(=O)c3ccccc3n3c(-c4cccc(C)c4)nnc23)cc1	%	-4.65
Cc1cc(C)c(NS(=O)(=O)c2ccc3c(c2)n(C)c(=O)n3C)c(C)c1	%	0.505
COc1ccc(-c2nc3ccncc3[nH]2)cc1	%	-92.6
CCCC1c2cccn2CCN1C(=O)Nc1ccc(Br)c(C)c1 (stereo not given)	%	-4.66
CCN(CC)CCNC(=O)CCc1nnc2n(Cc3ccc(Cl)cc3)c(=O)c3ccccc3n12	%	2.48
c1ccc(CO[C@H]2COCCN(c3nc4ccccc4o3)C2)cc1	%	1.17
Cn1ncc2c(N3CCN(S(N)(=O)=O)CC3)nc(C3CCCC3)nc21	%	-8.84
Cc1nc(NC(=O)C2CC(=O)N(c3n[nH]c4cc(Br)ccc34)C2)sc1C (stereo not given)	%	11.1
Cc1ccc(NC(=O)N2CCc3c(c4ccccc4n3CC3CC3)C2)cc1	%	6.89
COc1ccc(CCN2C(=O)c3cc4occc4n3CC2(C)C(=O)NC2CCCCCC2)cc1OC (stereo not given)	%	-3.67
CCCC1c2cccn2CCN1C(=O)Nc1ccccc1Br (stereo not given)	%	-6.73
CC1CCN(CCCNC(=O)CCc2nnc3n(Cc4ccccc4Cl)c(=O)c4ccccc4n23)CC1	%	-11.4
COc1cccc(N2C(=O)NC(=NC3CCCCC3)C23CCCN(CC2CCCCC2)C3)c1 (stereo not given)	%	-0.686
Cc1nn(C(=O)CCC(=O)N2CCC(Cc3nncn3CC3CC3)CC2)c2ccccc12	%	6.63
COc1cccc(Nc2cc3c(cn2)CN(Cc2cccnc2)CCN3)c1	%	1.92
COC(=O)c1ccc(C)c2c1C1C=CCC1[C@@H](c1ccc(C(=O)O)cc1)N2 (stereo not given in full)	%	-11.4
CC1(C)[C@H](Cc2cc(-c3ccccc3)on2)C[C@@H]1NCC1CC1	%	1.83
COc1ccc2cc(CNc3ccc(C)cc3)c(=O)n(CC(=O)Nc3cccc(C(F)(F)F)c3)c2c1	%	-6.71
CC(C)Cn1c(=O)c2ccccc2n2c(CCC(=O)N3CCN(c4ccc(F)cc4)CC3)nnc12	%	-4.42
Cc1cc2c(cc3n2CC(C)(C(=O)NC2CCCCCCC2)N(Cc2ccco2)C3=O)o1 (stereo not given)	%	-1.76
COCCn1ccc2c(C3=CCOCC3)nc(-c3cccc4[nH]ccc34)cc21	%	-2.42
CC1CCN(CCCNC(=O)CCc2nnc3n(Cc4ccc(F)cc4)c(=O)c4ccccc4n23)CC1	%	-10.3
Cc1c(C(=O)O)ccc2c1N[C@@H](c1cccc(C(F)(F)F)c1)[C@H]1CC=C[C@@H]21	%	-4.24
COc1cccc([C@H]2Nc3ccc(S(=O)(=O)Nc4ccc(C)cc4C)cc3[C@H]3C=CC[C@H]32)c1	%	-17.4
CC(=O)Nc1ccc2c(c1)C1C=CCC1C(c1ccccc1F)N2 (stereo not given)	%	-18.4
Cc1ccc(Cn2c(=O)c3ccccc3n3c(CCC(=O)NCCCN4CCC(C)CC4)nnc23)cc1	%	0
CCCC1c2cccn2CCN1C(=O)Nc1ccc(C)cc1Cl (stereo not given)	%	0.596
Cc1ccc([C@@H]2CN(c3cc(N4CCC(O)CC4)ncn3)C[C@H]2N(C)C)cc1	%	-2.09
COCCCN1C(=O)c2cc3c(OC)ccc(OC)c3n2CC1(C)C(=O)NC1CCCCC1 (stereo not given)	%	-9.18
COc1ccc(NC(=O)C(C)(C)Oc2nn(CC3CC3)c3ccc(CN4CCCC4)cc23)cc1	%	8.52
NC(=O)c1cccc2[nH]c(-c3ccc([C@@H]4CCCN4)cc3F)nc12	%	-9.14
COc1cccc(N2C(=O)c3cc4occc4n3CC2(C)C(=O)NC2CCCCCC2)c1 (stereo not given)	%	-4.86
Cc1ccc(N(C)S(=O)(=O)c2ccc3c(c2)n(C)c(=O)n3C)cc1	%	-6.35
CC(C)Cn1c(=O)c2ccccc2n2c(CCC(=O)Nc3ccc(F)c(F)c3)nnc12	%	-1.85
Cn1cc2c3c(cccc31)CN(C(=O)c1ccccc1F)CC2	%	-1.46
